# Tested on: Human Gastric Cancer Cell Line (BGC)
# assayExplanation: Tumor cell proliferation assay (MTT), BGC
# Type: cell-based
# conditionParameters: secondary screening, 48 hours

| compound | systemTested | IC50 [nM] |
| --- | --- | --- |
| Cc1ccc2c(c1)/C(=C1\CCCc3c1[nH]c(C)c3C(=O)NCC(O)CN(C)C1CCCCC1)C(=O)N2 (stereo not shown) [I-79] | Human Gastric Cancer Cell Line (BGC) | 2280 |
| CCN(CC)CC(O)CNC(=O)c1c(C)[nH]c2c1CCC/C2=C1/C(=O)Nc2ccc(F)cc21 (stereo not shown) [I-64] | Human Gastric Cancer Cell Line (BGC) | 2210 |
| Cc1[nH]c2c(c1C(=O)NCC(O)CN1CCCC1)CCC/C2=C1/C(=O)Nc2ccccc21 (stereo not shown) [I-70] | Human Gastric Cancer Cell Line (BGC) | 1490 |
| Cc1[nH]c2c(c1C(=O)NCC(O)CN(C)C)CCC/C2=C1/C(=O)Nc2ccc(F)cc21 (stereo not shown) [I-66] | Human Gastric Cancer Cell Line (BGC) | 4660 |

----------
# Test system: Human Small Cell Lung Cancer Cell Line (NCI-H446)
# assayExplanation: Tumor cell proliferation assay (MTT), NCI-H446
# Type: cell-based
# conditionParameters: secondary screening, 48 hours
# IC50 per record follows

| compound | IC50 |
| --- | --- |
| CCN(CC)CCNC(=O)c1c(C)[nH]c2c1CCC/C2=C1/C(=O)Nc2ccc(C)cc21 | 5.17 µM |
| Cc1[nH]c2c(c1C(=O)NCC(O)CN1CCN(C)CC1)CCC/C2=C1/C(=O)Nc2ccccc21 (stereo not shown) | 7.09 µM |
| CCN(CC)CC(O)CNC(=O)c1c(C)[nH]c2c1CCC/C2=C1/C(=O)Nc2ccc(F)cc21 (stereo not shown) | 2.05 µM |
| Cc1[nH]c2c(c1C(=O)NCC(O)CN1CCCC1)CCC/C2=C1/C(=O)Nc2ccc(F)cc21 (stereo not shown) | 2.52 µM |

----------
# systemTested: UniProt P35968
# Sequence (P35968 20-1356): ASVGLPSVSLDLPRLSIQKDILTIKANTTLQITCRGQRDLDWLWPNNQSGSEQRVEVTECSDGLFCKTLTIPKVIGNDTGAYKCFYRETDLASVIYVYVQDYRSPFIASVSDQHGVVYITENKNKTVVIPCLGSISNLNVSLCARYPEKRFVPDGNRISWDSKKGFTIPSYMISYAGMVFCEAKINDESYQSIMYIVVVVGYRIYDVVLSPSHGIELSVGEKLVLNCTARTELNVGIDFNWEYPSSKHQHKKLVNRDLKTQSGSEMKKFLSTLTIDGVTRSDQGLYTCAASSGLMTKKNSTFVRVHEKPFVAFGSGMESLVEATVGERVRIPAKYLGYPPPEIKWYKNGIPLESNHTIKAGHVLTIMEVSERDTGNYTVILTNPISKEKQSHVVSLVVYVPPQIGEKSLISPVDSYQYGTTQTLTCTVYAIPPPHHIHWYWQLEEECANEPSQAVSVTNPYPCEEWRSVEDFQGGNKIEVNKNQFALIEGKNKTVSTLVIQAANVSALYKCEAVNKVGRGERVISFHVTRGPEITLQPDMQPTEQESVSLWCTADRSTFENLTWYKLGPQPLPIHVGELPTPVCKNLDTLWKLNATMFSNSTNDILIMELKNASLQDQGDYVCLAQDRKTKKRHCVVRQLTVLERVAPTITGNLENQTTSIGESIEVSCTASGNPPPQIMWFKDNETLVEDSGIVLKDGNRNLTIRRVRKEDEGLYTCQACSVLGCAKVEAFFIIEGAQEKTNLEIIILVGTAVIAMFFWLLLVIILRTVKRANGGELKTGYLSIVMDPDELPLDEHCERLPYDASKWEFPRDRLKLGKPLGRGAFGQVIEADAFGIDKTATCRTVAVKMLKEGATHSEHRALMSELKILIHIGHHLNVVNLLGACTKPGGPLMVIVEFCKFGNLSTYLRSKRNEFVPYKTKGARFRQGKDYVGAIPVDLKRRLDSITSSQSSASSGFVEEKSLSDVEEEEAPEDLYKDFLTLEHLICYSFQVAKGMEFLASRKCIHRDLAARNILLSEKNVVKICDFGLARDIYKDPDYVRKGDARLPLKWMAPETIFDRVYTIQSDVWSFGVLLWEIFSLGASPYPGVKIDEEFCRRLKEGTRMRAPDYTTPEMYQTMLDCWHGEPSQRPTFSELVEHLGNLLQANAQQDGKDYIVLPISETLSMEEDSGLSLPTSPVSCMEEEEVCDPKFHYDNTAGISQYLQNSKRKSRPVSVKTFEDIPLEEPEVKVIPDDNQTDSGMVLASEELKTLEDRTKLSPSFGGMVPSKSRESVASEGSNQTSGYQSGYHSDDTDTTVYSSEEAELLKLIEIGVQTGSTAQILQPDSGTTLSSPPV
Each entry below carries its recorded IC50.

| compound | IC50 (µM) |
| --- | --- |
| Cc1[nH]c2c(c1C(=O)NCCCN1CCOCC1)CCC/C2=C1/C(=O)Nc2ccc(F)cc21 | 0.027 |
| CCN(CC)CCNC(=O)c1c(C)[nH]c2c1CCC/C2=C1/C(=O)Nc2ccccc21 | 0.009 |
| CCN(CC)CCNC(=O)c1c(C)[nH]c2c1CCC/C2=C1/C(=O)Nc2ccc(OC)cc21 | 0.013 |
| CCN(CC)CCNC(=O)c1c(C)[nH]c2c1CCC/C2=C1/C(=O)Nc2cccc(F)c21 | 0.012 |
| CCN(CC)CCNC(=O)c1c(C)[nH]c2c1CCC/C2=C1/C(=O)Nc2c(F)cccc21 | 0.082 |
| CCN(CC)CCNC(=O)c1c(C)[nH]c2c1CCC/C2=C1/C(=O)Nc2ccc(C(=O)O)cc21 | 0.0068 |
| Cc1[nH]c2c(c1C(=O)NCC(O)CN1CCOCC1)CCC/C2=C1/C(=O)Nc2ccc(F)cc21 (stereo not shown) | 0.043 |
| CCN(CC)CCNC(=O)c1c(C)[nH]c2c1CCC/C2=C1/C(=O)Nc2ccc(C(=O)Nc3ccc(F)cc3)cc21 | 0.054 |
| CCN(CC)CCNC(=O)c1c(C)[nH]c2c1CCC/C2=C1/C(=O)Nc2ccc(Br)cc21 | 0.0063 |
| Cc1[nH]c2c(c1C(=O)NCCO)CCC/C2=C1/C(=O)Nc2ccc(F)cc21 | 0.03 |

----------
# systemTested: PDGFR-β (Homo sapiens, UniProt P09619)
# Construct: purchased Cell Signaling Technology CO
# Sequence (P09619 33-1106): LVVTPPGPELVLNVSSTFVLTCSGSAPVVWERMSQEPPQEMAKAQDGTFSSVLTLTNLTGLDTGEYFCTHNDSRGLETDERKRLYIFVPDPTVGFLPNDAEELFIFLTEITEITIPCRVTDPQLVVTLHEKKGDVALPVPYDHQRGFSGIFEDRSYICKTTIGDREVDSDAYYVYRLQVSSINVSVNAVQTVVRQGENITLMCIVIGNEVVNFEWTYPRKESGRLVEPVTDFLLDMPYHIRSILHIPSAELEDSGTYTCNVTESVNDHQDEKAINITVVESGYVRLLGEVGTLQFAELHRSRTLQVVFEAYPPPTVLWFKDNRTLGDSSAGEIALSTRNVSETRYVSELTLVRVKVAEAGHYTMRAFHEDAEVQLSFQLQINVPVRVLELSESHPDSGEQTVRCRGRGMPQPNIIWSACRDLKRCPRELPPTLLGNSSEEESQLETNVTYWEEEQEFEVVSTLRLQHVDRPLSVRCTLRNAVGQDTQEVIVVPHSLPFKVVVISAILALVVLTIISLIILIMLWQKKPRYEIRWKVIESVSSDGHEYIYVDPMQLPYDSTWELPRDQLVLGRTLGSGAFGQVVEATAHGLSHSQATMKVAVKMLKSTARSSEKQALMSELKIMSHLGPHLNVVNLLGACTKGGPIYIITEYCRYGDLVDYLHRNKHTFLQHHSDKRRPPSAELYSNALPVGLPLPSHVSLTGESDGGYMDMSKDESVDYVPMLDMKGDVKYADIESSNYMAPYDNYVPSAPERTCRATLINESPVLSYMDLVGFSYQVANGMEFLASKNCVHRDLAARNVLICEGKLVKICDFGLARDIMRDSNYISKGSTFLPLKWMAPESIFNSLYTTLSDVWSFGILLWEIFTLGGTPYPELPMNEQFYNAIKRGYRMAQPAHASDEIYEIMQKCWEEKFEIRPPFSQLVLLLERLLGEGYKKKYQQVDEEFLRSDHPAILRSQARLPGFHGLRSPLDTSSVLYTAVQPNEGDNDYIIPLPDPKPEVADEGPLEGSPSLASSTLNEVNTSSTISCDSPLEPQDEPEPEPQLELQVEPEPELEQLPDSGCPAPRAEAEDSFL
# assayExplanation: Protein kinase activity by ELISA in vitro, PDGFR-β
# Format: biochemical
# conditionParameters: concentration of 10^−7 mol/L; read-out: kinase inhibition ratio, PDGFR-β
# inhibition at 0.1 µM per record follows
recordedEndpoint: inhibition at 0.1 µM (%)

| compound | recordedEndpoint | recordedResult |
| --- | --- | --- |
| Cc1[nH]c2c(c1C(=O)NCCO)CCC/C2=C1/C(=O)Nc2ccccc21 | inhibition at 0.1 µM | 89 |
| Cc1[nH]c2c(c1C(=O)NCCN(C)C)CCC/C2=C1/C(=O)Nc2ccc(F)cc21 | inhibition at 0.1 µM | 85 |
| CCN(CC)CCNC(=O)c1c(C)[nH]c2c1CCC/C2=C1/C(=O)Nc2ccc(F)cc21 | inhibition at 0.1 µM | 90 |
| CCN(CC)CCNC(=O)c1c(C)[nH]c2c1CCC/C2=C1/C(=O)Nc2ccc(Cl)cc21 | inhibition at 0.1 µM | 88 |
| CCN(CC)CCNC(=O)c1c(C)[nH]c2c1CCC/C2=C1/C(=O)Nc2ccccc21 | inhibition at 0.1 µM | 87 |
| Cc1[nH]c2c(c1C(=O)NCC(O)CN1CCCC1)CCC/C2=C1/C(=O)Nc2ccccc21 (stereo not drawn) | inhibition at 0.1 µM | 85 |
| Cc1[nH]c2c(c1C(=O)NCCCN(C)C)CCC/C2=C1/C(=O)Nc2ccc(Cl)cc21 | inhibition at 0.1 µM | 86 |
| CCN(CC)CCNC(=O)c1c(C)[nH]c2c1CCC/C2=C1/C(=O)Nc2ccc(C)cc21 | inhibition at 0.1 µM | 86 |
| CCN(CC)CC(O)CNC(=O)c1c(C)[nH]c2c1CCC/C2=C1/C(=O)Nc2ccccc21 (stereo not drawn) | inhibition at 0.1 µM | 87 |

----------
// inhibition at 10 µM lookup, one value per entry
# Tested on: Human Pancreatic Carcinoma Cell Line (BXPC-3)
# assayExplanation: Tumor cell proliferation assay (MTT), BXPC-3
# Format: cell-based
# conditionParameters: concentration of 10^−5 mol/L, preliminary screening, 72 hours, read-out: Inhibition rate % BXPC-3
recordedEndpoint: inhibition at 10 µM (%)

| compound | unitsSymbol | recordedResult |
| --- | --- | --- |
| Cc1[nH]c2c(c1C(=O)NCC(O)CN1CCCC1)CCC/C2=C1/C(=O)Nc2ccc(F)cc21 (centres unmarked) [I-71] | % | 98.9 |
| Cc1[nH]c2c(c1C(=O)NCC(O)CN(C)C)CCC/C2=C1/C(=O)Nc2ccc(F)cc21 (centres unmarked) [I-66] | % | 97.9 |
| Cc1[nH]c2c(c1C(=O)NCCCN(C)C)CCC/C2=C1/C(=O)Nc2ccc(Cl)cc21 [I-7] | % | 69.5 |
| CCN(CC)CC(O)CNC(=O)c1c(C)[nH]c2c1CCC/C2=C1/C(=O)Nc2ccc(Cl)cc21 (centres unmarked) [I-65] | % | 99.2 |
| Cc1[nH]c2c(c1C(=O)NCC(O)CN1CCCCC1)CCC/C2=C1/C(=O)Nc2ccc(Cl)cc21 (centres unmarked) [I-75] | % | 73.1 |
| Cc1[nH]c2c(c1C(=O)NCCO)CCC/C2=C1/C(=O)Nc2ccc(F)cc21 [I-9] | % | 63.7 |
| CCN(CC)CCNC(=O)c1c(C)[nH]c2c1CCC/C2=C1/C(=O)Nc2ccc(F)cc21 [I-2] | % | 79.4 |
| CCN(CC)CC(O)CNC(=O)c1c(C)[nH]c2c1CCC/C2=C1/C(=O)Nc2ccccc21 (centres unmarked) [I-63] | % | 97.3 |
| Cc1[nH]c2c(c1C(=O)NCC(O)CN1CCCC1)CCC/C2=C1/C(=O)Nc2ccc(Cl)cc21 (centres unmarked) [I-72] | % | 99.3 |
| Cc1[nH]c2c(c1C(=O)NCC(O)CN1CCN(C)CC1)CCC/C2=C1/C(=O)Nc2ccc(Cl)cc21 (centres unmarked) [I-78] | % | 31.7 |
| CCN(CC)CCNC(=O)c1c(C)[nH]c2c1CCC/C2=C1/C(=O)Nc2ccc(C)cc21 [I-4] | % | 78.4 |
| Cc1[nH]c2c(c1C(=O)NCC(O)CN1CCN(C)CC1)CCC/C2=C1/C(=O)Nc2ccc(F)cc21 (centres unmarked) [I-77] | % | 45.9 |
| Cc1[nH]c2c(c1C(=O)NCC(O)CN1CCN(C)CC1)CCC/C2=C1/C(=O)Nc2ccccc21 (centres unmarked) [I-76] | % | 97.5 |
| Cc1[nH]c2c(c1C(=O)NCCN(C)C)CCC/C2=C1/C(=O)Nc2ccc(F)cc21 [I-6] | % | 64.9 |
| Cc1[nH]c2c(c1C(=O)NCC(O)CN1CCOCC1)CCC/C2=C1/C(=O)Nc2ccccc21 (centres unmarked) [I-67] | % | 51.7 |
| Cc1[nH]c2c(c1C(=O)NCC(O)CN1CCOCC1)CCC/C2=C1/C(=O)Nc2ccc(Cl)cc21 (centres unmarked) [I-69] | % | 39.9 |
| Cc1[nH]c2c(c1C(=O)N1CCOCC1)CCC/C2=C1/C(=O)Nc2ccc(F)cc21 [I-10] | % | 51.7 |
